system.tested: T1, TipAN (Streptomyces lividans, UniProt P0A4T9 1-109)
T1 sequence: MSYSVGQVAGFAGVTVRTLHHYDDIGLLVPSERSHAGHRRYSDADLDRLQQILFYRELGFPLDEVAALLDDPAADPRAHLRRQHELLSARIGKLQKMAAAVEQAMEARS
assay.text: fluorescence polarization; no thiostrepton; 20 mM Tris-HCl pH 7.5, 200 mM NaCl, 5% (v/v) glycerol, 298 K; 10 nM labeled DNA
condition.context: protein: recombinant; tags: His6 (pET-28a); chain copies: 2; label: 5'-carboxyfluorescein; blunt
measure: pKd
In plain terms, pKd is the concentration in mol/L turned into minus its base-10 logarithm.

Form field: reported pKd of ptipA (dsDNA) DNA 1: TTGCACCTCACGTCACGTGAGGAGGC DNA 2: GCCTCCTCACGTGACGTGAGGTGCAA
7.36
